// provenance: the RepoRT retention time repository (doi:10.1016/j.foodchem.2021.129757)

# ASSAY_PROCEDURE: RP, 150 × 2.1 mm, 2.6 µm, 40 °C, 0.35 mL/min, estimated dead time 0.94 min; A: water + 0.1% formic acid, pH 3; B: acetonitrile + 0.1% formic acid, pH 3; gradient (min/%B) 0/0 1/5 7/45 8.5/80 10.5/80 11/5 12/5
# DETAILS: stereoisomer not certain
OBSERVED_PROPERTY: LC retention time (min)
Reply numerically in min, unit not repeated.

Take a look at these entries with their results.
COMPOUND: COC(=O)Cc1c[nH]c2ccccc12 [Methyl indole acetate]
LC retention time, min: 8.34
//
COMPOUND: COc1ccc2[nH]cc(CC(=O)O)c2c1
LC retention time, min: 6.29
//
COMPOUND: O=C(C=Cc1ccc(O)c(O)c1)OC1C(O)CC(O)(C(=O)O)CC1O (centres undefined)
LC retention time, min: 4.45
//
COMPOUND: COc1ccc(C2CC(=O)c3c(O)cc(O)cc3O2)cc1O (centres undefined)
LC retention time, min: 8.21
//
COMPOUND: COc1cc(CCC(=O)O)cc(OC)c1OC
LC retention time, min: 6.73
//
COMPOUND: O=C(O)CNC(=O)c1ccc(O)cc1 [4-Hydroxyhippuric acid]
LC retention time, min: 3.56
//
COMPOUND: O=C(O)C=Cc1ccccc1O
LC retention time, min: 6.36
//
COMPOUND: O=C(OC1Cc2c(O)cc(O)cc2OC1c1ccc(O)c(O)c1)c1cc(O)c(O)c(O)c1 (centres undefined) [Epicatechin gallate]
LC retention time, min: 5.72

Value lookup for LC retention time; key = `Oc1cccc(O)c1O`
1.87
